Assay Protocol: Caco-2 permeability determination
Type: in vitro ADME
Reported Conditions: human; Caco-2, basolateral to apical side
Recorded Endpoint: Papp B→A at 95 min (×10⁻⁶ cm/s)
Respond with the bare value in ×10⁻⁶ cm/s.

O=C(c1sccc1Oc1cc(Cl)ccc1Cl)N1CCN(C2CC2)c2ccccc21 ... 0.43

Next item in the queue.
What value of Papp B→A at 95 min has been reported for the following compound? CN(CC[N+](C)(C)C)C(=O)CCc1cc(Cl)c(Oc2ccsc2C(=O)N2CCN(C3CC3)c3ccccc32)cc1Cl [Compound 26a]
0.8

====

Recorded EC50 for the following compounds
Measured Target: UniProt Q80SS6
Sequence (Q80SS6 whole entry): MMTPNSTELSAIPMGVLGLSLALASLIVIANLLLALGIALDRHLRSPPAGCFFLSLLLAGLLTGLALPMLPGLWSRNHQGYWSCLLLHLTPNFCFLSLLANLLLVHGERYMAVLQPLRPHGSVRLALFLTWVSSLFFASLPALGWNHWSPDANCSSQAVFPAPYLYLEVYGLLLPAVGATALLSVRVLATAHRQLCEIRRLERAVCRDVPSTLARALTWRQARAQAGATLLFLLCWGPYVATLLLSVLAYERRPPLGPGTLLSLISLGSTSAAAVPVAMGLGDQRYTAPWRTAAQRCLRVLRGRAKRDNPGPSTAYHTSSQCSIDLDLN
Assay Protocol: In vitro TGR5 reporter gene assay (mTGR5/CRE/HEK293)
Param answer (str): number followed by unit.

O=C(c1sccc1Oc1cc(Cl)ccc1Br)N1CCN(C2CC2)c2ccccc21 ... 3 nM
CN(CC[N+](C)(C)C)C(=O)CCc1cc(Cl)c(Oc2ccsc2C(=O)N2CCN(C3CC3)c3ccccc32)cc1Cl [Compound 26a] ... 0.71 nM

Next item in the queue.
Find the measured EC50: item O=C(c1sccc1Oc1cc(Cl)ccc1Cl)N1CCN(C2CC2)c2ccccc21 , target or system UniProt Q80SS6.
2.8 nM

====

Assay Protocol: Pharmacokinetics assay of 26a in ob/ob mice (plasma and intestinal tissue)
Type: in vivo, mouse
Reported Conditions: male, mouse, jejunum, po, 100 mg/kg p.o., at 2 h, tissue density taken as 1 g/ml, read-out: Cmax in jejunum tissue
Recorded Endpoint: Cmax (µg/mL)
Respond with the bare value in µg/mL.

What value of Cmax has been reported for the following compound? CN(CC[N+](C)(C)C)C(=O)CCc1cc(Cl)c(Oc2ccsc2C(=O)N2CCN(C3CC3)c3ccccc32)cc1Cl [Compound 26a]
92

====

Assay Protocol: Pharmacokinetics assay of 26a in ob/ob mice (plasma and intestinal tissue)
Format: in vivo, mouse
Reported Conditions: male, mouse, plasma, po, 100 mg/kg p.o. single dose, read-out: Cmax in plasma
Recorded Endpoint: Cmax (ng/mL)
Respond with the bare value in ng/mL.

What value of Cmax has been reported for the following compound? CN(CC[N+](C)(C)C)C(=O)CCc1cc(Cl)c(Oc2ccsc2C(=O)N2CCN(C3CC3)c3ccccc32)cc1Cl [Compound 26a]
71

====

Assay Protocol: Drug levels in plasma, bile and gallbladder tissue after 3 days oral administration to ob/ob mice
Format: in vivo
Reported Conditions: male, mouse, after the 3-day gallbladder filling assay, 100 mg/kg p.o., read-out: concentration in gallbladder
Recorded Endpoint: concentration at 3 days (ng/mL)
Respond with the bare value in ng/mL.

What value of concentration at 3 days has been reported for the following compound? CN(CC[N+](C)(C)C)C(=O)CCc1cc(Cl)c(Oc2ccsc2C(=O)N2CCN(C3CC3)c3ccccc32)cc1Cl [Compound 26a]
112

====

Assay Protocol: Caco-2 permeability determination
Type: in vitro ADME
Reported Conditions: human, Caco-2
Procedure: Caco-2 permeability determination. Caco-2 permeability determination was carried out […] Drug transport from the apical side to the basolateral side (A-B) and from the basolateral side to the apical side was measured simultaneously under the same condition. […] collected from the donor side at 5 and 95 min, and from the receiver side at 35 and 95 min post-incubation. The concentration of samples was measured by LC-MS/MS. The Papp was calculated from the following equation: […]
Recorded Endpoint: efflux ratio at 95 min
Write no unit; give the number alone.

What value of efflux ratio at 95 min has been reported for the following compound? O=C(c1sccc1Oc1cc(Cl)ccc1Cl)N1CCN(C2CC2)c2ccccc21
0.8

The origin of these recorded values is paper PMC4919643.
